Entries annotated with measured SPOT intensity
Target: T1, Boi2, P39969
T1 sequence (P39969 32-116, looked up): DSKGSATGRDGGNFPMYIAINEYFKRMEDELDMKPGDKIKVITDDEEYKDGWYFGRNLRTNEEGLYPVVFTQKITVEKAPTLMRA
Assay: SPOT array
Details: median of control spots 1161

Entry `VQKRKLPLPGSIASA` : reported SPOT intensity = ?
0

Entry source: paper PMC2756588
